B1: Connector enhancer of kinase suppressor of ras 2, residues 9 to 71; numbered along this chain, Q8WXI2 (parent)
chain: SKWSPSQVVDWMKGLDDCLQQYIKNFEREKISGDQLLRITHQELEDLGVSRIGHQELILEAVD

Variants of: B1
MEASUREMENT_DESCRIPTION: abundance fitness (aPCA) (normalised: wild type 0, dead -1); higher = more abundant; growth selection in yeast, the domain comes from the species named
DETAILS: Homo sapiens
Measured abundance fitness, listed per entry for reference.

CHANGES: D16K
abundance fitness: -0.632
--
CHANGES: I23L
abundance fitness: -0.163
--
CHANGES: Q35D
abundance fitness: -0.158
--
CHANGES: T40N
abundance fitness: -0.201
--
CHANGES: D46H
abundance fitness: 0.008
--
CHANGES: S50N
abundance fitness: -0.471
--
CHANGES: D46I
abundance fitness: -0.178
--
CHANGES: D34S
abundance fitness: -0.06
--
CHANGES: Q35G
abundance fitness: -0.485
--
CHANGES: T40F
abundance fitness: -1.21
--
CHANGES: V62K
abundance fitness: -0.392
--
CHANGES: G53H
abundance fitness: -0.015
--
CHANGES: V62A
abundance fitness: -0.335
--
CHANGES: E60G
abundance fitness: -0.096
--
CHANGES: L19F
abundance fitness: -0.548
--
CHANGES: L44P
abundance fitness: -0.821
--
CHANGES: E43I
abundance fitness: -0.46
--
CHANGES: G14F
abundance fitness: -1.06
--
CHANGES: Q55H
abundance fitness: -0.861
--
CHANGES: L36K
abundance fitness: -0.775
--
CHANGES: L15N
abundance fitness: -0.512
--
CHANGES: I52D
abundance fitness: -0.123
--
CHANGES: S32P
abundance fitness: -0.624
--
CHANGES: Q21G
abundance fitness: -0.032
--
CHANGES: D63C
abundance fitness: -0.025
--
CHANGES: Q42G
abundance fitness: -0.193
--
CHANGES: L36T
abundance fitness: -0.88
--
CHANGES: E43N
abundance fitness: -0.121
--
CHANGES: I39Y
abundance fitness: -0.632
--
CHANGES: D46V
abundance fitness: -0.11
--
CHANGES: D16I
abundance fitness: -0.615
--
CHANGES: E29M
abundance fitness: -0.054
--
CHANGES: C18I
abundance fitness: -0.439
--
CHANGES: R28S
abundance fitness: -0.056
--
CHANGES: D16N
abundance fitness: -0.311
--
CHANGES: E45N
abundance fitness: -0.015
--
CHANGES: D34F
abundance fitness: -0.281
--
CHANGES: Q21N
abundance fitness: -0.4
--
CHANGES: H41Y
abundance fitness: -0.075
--
CHANGES: Q55D
abundance fitness: -0.978
--
CHANGES: R28G
abundance fitness: -0.262
--
CHANGES: H54M
abundance fitness: -0.819
--
CHANGES: E43L
abundance fitness: -0.41
--
CHANGES: Q20F
abundance fitness: -0.179
--
CHANGES: D34N
abundance fitness: -0.087
--
CHANGES: T40E
abundance fitness: -0.548
